Please go through the items and note down their inhibition.
# system: recombinant wild-type (wt) human kallikrein 2 (human, UniProt P20151 25-261)
# method_notes: cell-based or functional assay
No end group written: not given here.
One number for each entry, in %.

Record inhibition for all entries; do not skip any.
1. SRAKVWWAAG-OH [SRAKVWWAAG (SEQ ID NO:58)]
2. GRRPFPG-OH [GRRPFPG (SEQ ID NO:44)]
3. SRFKVWG-OH [SRFKVWG (SEQ ID NO:70)]
4. GPARRPAPVTAG-OH [GPARRPAPVTAG (SEQ ID NO:20)]
5. RRPFP [RRPFP (SEQ ID NO:40)]
6. SRFKG-OH [SRFKG (SEQ ID NO:72)]

0
0
8
49
0
0

Record inhibition for all entries; do not skip any.
1. Ac-SRFKVWWG [Ac-SRFKVWWG (SEQ ID NO:74)]
2. SRFAVWWAAG-OH [SRFAVWWAAG (SEQ ID NO:59)]
3. GPAARPFPVTAG-OH [GPAARPFPVTAG (SEQ ID NO:17)]
4. GPARRAFPVTAG-OH [GPARRAFPVTAG (SEQ ID NO:19)]
5. ARFKVWWGG [ARFKVWWGG (SEQ ID NO:78)]
6. FKVWWAAG [FKVWWAAG (SEQ ID NO:66)]

1. 86
2. 0
3. 0
4. 0
5. 93
6. 0

Record inhibition for all entries; do not skip any.
1. GPFPVTAG-OH [GFFPVTAG as printed in Table 6 (SEQ ID NO:35)]
2. Ac-ARFKVWWGG [Ac-ARFKVWWGG (SEQ ID NO:77)]
3. GPARRPFPVG-OH [GPARRPFPVG (SEQ ID NO:25)]

1. 0
2. 92
3. 37

Return reported inhibition; argument: WWAAG-OH [WWAAG (SEQ ID NO:67)] 0

The origin of these recorded values is patent US20090214427A1.
